Listing: Classification of selected binders
Target: T1, GST-MUPP1 PDZ domain 7 (Homo sapiens (Human)), O75970
T1 chain: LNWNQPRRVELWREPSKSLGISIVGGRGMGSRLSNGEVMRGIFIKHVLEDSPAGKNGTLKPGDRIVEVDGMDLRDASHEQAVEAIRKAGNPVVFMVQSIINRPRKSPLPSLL
Assay: G' assay; further: key of the grades not given here

{"binder": "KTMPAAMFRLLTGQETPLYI (modifications not checked) [MINT-2]", "Classification [A450 class]": 1}
{"binder": "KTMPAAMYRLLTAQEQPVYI (modifications not checked) [MINT-1]", "Classification [A450 class]": 3}
{"binder": "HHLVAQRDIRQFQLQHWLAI (modifications not checked) [noradrenaline transporter]", "Classification [A450 class]": 3}
{"binder": "PVYIVQEMPPQSPANIYYKV (modifications not checked) [ephrin B1]", "Classification [A450 class]": 1}
